- methodSummary: Fixing effect: analysis of residue on paper after standing 15 minutes
- Format: physicochemical
- assaySetup: Linalool (not present: 6.4); area of musk ketone taken as 1
Kindly supply the reported Analysis of Residue on Paper after Standing 15 Minutes (Area Ratio) values for the records listed here.
One number for each entry.

| compound | val |
| --- | --- |
| CC(C)COC(=O)CCCCC(=O)OCC(C)C [DIBA, diisobutyl adipate] | 9.5 |

Item O=C(OCc1ccccc1)c1ccccc1 [Benzyl Benzoate, benzyl benzoate] : provide Analysis of Residue on Paper after Standing 15 Minutes (Area Ratio) 8.1

----------
- methodSummary: Fixing effect: analysis of residue on paper after standing 15 minutes
- Assay type: physicochemical
- assaySetup: Limonene (not present: 0.3); area of musk ketone taken as 1
readoutName: Analysis of Residue on Paper after Standing 15 Minutes (Area Ratio)
Give bare numbers.

| molecule | val |
| --- | --- |
| O=C(OCc1ccccc1)c1ccccc1 [Benzyl Benzoate, benzyl benzoate] | 0.38 |

Now consider the entry below.
Item CC(C)COC(=O)CCCCC(=O)OCC(C)C [DIBA, diisobutyl adipate] : provide Analysis of Residue on Paper after Standing 15 Minutes (Area Ratio) 0.6

----------
- Tested on: Pseudomonas aeruginosa
- methodSummary: Microorganism assimilation
- assaySetup: 2 days elapsed
So basically: pH at 5 or higher? That is met. Lower than 5? That is not met.

| compound | discreteLabel |
| --- | --- |
| CCCCC(CC)COC(=O)CCCCC(=O)OCC(CC)CCCC (centres unmarked) [Di-2-ethylhexyl Adipate, di-2-ethylhexyl adipate] | met |

pH >= 5 for CCOC(=O)c1ccccc1C(=O)OCC [Diethyl Phthalate, diethyl phthalate] ? met

pH >= 5 for CC(C)CCOC(=O)CCCCC(=O)OCCC(C)C (single isomer, unassigned) [DIAA, diisoamyl adipate] ? not met

pH >= 5 for CC(C)COC(=O)CCCCC(=O)OCC(C)C [DIBA, diisobutyl adipate] ? not met

pH >= 5 for CC(C)OC(=O)CCCCC(=O)OC(C)C [Diisopropyl Adipate, diisopropyl adipate] ? met

----------
- Tested on: Pseudomonas aeruginosa
- methodSummary: Microorganism assimilation
- assaySetup: 14 days elapsed
Kindly supply the reported pH values for the records listed here.
Answers are plain numbers.

| compound | pH |
| --- | --- |
| CC(C)COC(=O)CCCCC(=O)OCC(C)C [DIBA, diisobutyl adipate] | 4.40 |
| CCOC(=O)c1ccccc1C(=O)OCC [Diethyl Phthalate, diethyl phthalate] | 6.86 |
| CCCCC(CC)COC(=O)CCCCC(=O)OCC(CC)CCCC (centres unmarked) [Di-2-ethylhexyl Adipate, di-2-ethylhexyl adipate] | 6.10 |
| CC(C)OC(=O)CCCCC(=O)OC(C)C [Diisopropyl Adipate, diisopropyl adipate] | 4.22 |

Now consider the entry below.
Item CC(C)CCOC(=O)CCCCC(=O)OCCC(C)C (single isomer, unassigned) [DIAA, diisoamyl adipate] : provide pH 4.30

----------
- methodSummary: Fixing effect: analysis of residue on paper after standing 15 minutes
- Format: physicochemical
- assaySetup: Pinene (not present: 0.0); area of musk ketone taken as 1
readoutName: Analysis of Residue on Paper after Standing 15 Minutes (Area Ratio)
One number for each entry.

| molecule | val |
| --- | --- |
| CC(C)COC(=O)CCCCC(=O)OCC(C)C [DIBA, diisobutyl adipate] | 0 |

Now consider the entry below.
Item O=C(OCc1ccccc1)c1ccccc1 [Benzyl Benzoate, benzyl benzoate] : provide Analysis of Residue on Paper after Standing 15 Minutes (Area Ratio) 0

----------
- methodSummary: Acute oral toxicity (LD50)
- assaySetup: acute oral toxicity
Kindly supply the reported LD50 values for the records listed here.
Answers are plain numbers, in mL/kg.

Can you give me LD50 for all of these, one by one?
1. CC(O)CO (centres unmarked)
2. CC(C)COC(=O)CCCCC(=O)OCC(C)C [DIBA, diisobutyl adipate]

[23.9, 12.3]

----------
- Tested on: Pseudomonas aeruginosa
- methodSummary: Microorganism assimilation
- assaySetup: 2 days elapsed
readoutName: Number of Living Cells

| molecule | Number of Living Cells |
| --- | --- |
| CCCCC(CC)COC(=O)CCCCC(=O)OCC(CC)CCCC (centres unmarked) [Di-2-ethylhexyl Adipate, di-2-ethylhexyl adipate] | 1.3 × 10^6 |
| CC(C)OC(=O)CCCCC(=O)OC(C)C [Diisopropyl Adipate, diisopropyl adipate] | 4.0 × 10^5 |
| CC(C)CCOC(=O)CCCCC(=O)OCCC(C)C (single isomer, unassigned) [DIAA, diisoamyl adipate] | 1.6 × 10^6 |
| CCOC(=O)c1ccccc1C(=O)OCC [Diethyl Phthalate, diethyl phthalate] | 2.5 × 10^6 |

Now consider the entry below.
Item CC(C)COC(=O)CCCCC(=O)OCC(C)C [DIBA, diisobutyl adipate] : provide Number of Living Cells 2.3 × 10^7

----------
Kindly supply the reported Number of Living Cells values for the records listed here.
- System: Pseudomonas aeruginosa
- methodSummary: Microorganism assimilation
- assaySetup: 7 days elapsed

Solved entries:
| compound | Number of Living Cells |
| --- | --- |
| CCOC(=O)c1ccccc1C(=O)OCC [Diethyl Phthalate, diethyl phthalate] | 4.2 × 10^4 |
| CC(C)CCOC(=O)CCCCC(=O)OCCC(C)C (single isomer, unassigned) [DIAA, diisoamyl adipate] | < 10^2 |
| CCCCC(CC)COC(=O)CCCCC(=O)OCC(CC)CCCC (centres unmarked) [Di-2-ethylhexyl Adipate, di-2-ethylhexyl adipate] | 5.0 × 10^7 |

Can you give me Number of Living Cells for all of these, one by one?
1. CC(C)OC(=O)CCCCC(=O)OC(C)C [Diisopropyl Adipate, diisopropyl adipate]
2. CC(C)COC(=O)CCCCC(=O)OCC(C)C [DIBA, diisobutyl adipate]

1.9 × 10^7
3 × 10^2

----------
- Test system: Pseudomonas aeruginosa
- methodSummary: Microorganism assimilation
- assaySetup: 7 days elapsed, 660 nm
So basically: OD (turbidity) at 0.05 or higher? That is true. Lower than 0.05? That is false.

Use these answered entries as a reference point.
| molecule | discreteLabel |
| --- | --- |
| CCCCC(CC)COC(=O)CCCCC(=O)OCC(CC)CCCC (centres unmarked) [Di-2-ethylhexyl Adipate, di-2-ethylhexyl adipate] | false |
| CCOC(=O)c1ccccc1C(=O)OCC [Diethyl Phthalate, diethyl phthalate] | false |
| CC(C)COC(=O)CCCCC(=O)OCC(C)C [DIBA, diisobutyl adipate] | true |

Consider the record given below.
OD (turbidity) >= 0.05 for CC(C)OC(=O)CCCCC(=O)OC(C)C [Diisopropyl Adipate, diisopropyl adipate] ? true

----------
- methodSummary: Fixing effect: analysis of residue on paper after standing 15 minutes
- Type: physicochemical
- assaySetup: Citral (not present: 1.5); area of musk ketone taken as 1
Kindly supply the reported Analysis of Residue on Paper after Standing 15 Minutes (Area Ratio) values for the records listed here.
Answers are plain numbers.

| compound | val |
| --- | --- |
| O=C(OCc1ccccc1)c1ccccc1 [Benzyl Benzoate, benzyl benzoate] | 1.8 |

Now consider the entry below.
Item CC(C)COC(=O)CCCCC(=O)OCC(C)C [DIBA, diisobutyl adipate] : provide Analysis of Residue on Paper after Standing 15 Minutes (Area Ratio) 2

----------
- methodSummary: Fixing effect: analysis of residue on paper after standing 15 minutes
- Assay type: physicochemical
- assaySetup: Musk Ketone (reference, taken as 1; not present: 1.0)
readoutName: Analysis of Residue on Paper after Standing 15 Minutes (Area Ratio)
Give bare numbers.

| compound | val |
| --- | --- |
| CC(C)COC(=O)CCCCC(=O)OCC(C)C [DIBA, diisobutyl adipate] | 1 |

Now consider the entry below.
Item O=C(OCc1ccccc1)c1ccccc1 [Benzyl Benzoate, benzyl benzoate] : provide Analysis of Residue on Paper after Standing 15 Minutes (Area Ratio) 1

----------
- methodSummary: Acute oral toxicity (LD50)
- assaySetup: acute oral toxicity
Where a name gives a salt, the structure may show the parent alone.
readoutName: LD50

Solved entries:
| compound | val |
| --- | --- |
| CCCCCCCCCCCCCC(=O)OC(C)C [Isopropyl Myristate] | > 25 mL/kg |
| CC(C)CCOC(=O)CCCCC(=O)OCCC(C)C (single isomer, unassigned) [DIAA, diisoamyl adipate] | > 25 mL/kg |

Now consider the entry below.
Item CCOC(=O)CC(O)(CC(=O)OCC)C(=O)OCC [Triethyl Citrate] : provide LD50 > 25 mL/kg
